Reported pIC50 values for the following compounds.
Target: mTOR/GbL/Raptor (mTORC1) (Homo sapiens, UniProt P42345)
Test: mTOR/GbL/Raptor (mTORC1) ELISA assay
Details: phosphorylation of 4E-BP1; 0.2 nM mTORC1, 10 μM ATP; read-out: IC50 in this assay (mTORC1 ELISA)
pIC50: −log10 of the molar value.

[
  {
    "compound": "Cc1nc2cc(-c3ccc4c(c3)CN(c3nc(CO)nc(C)c3Cc3ccc(F)cc3)CCO4)ccc2[nH]1",
    "pIC50": "≥ 8.00"
  },
  {
    "compound": "CCc1ncnc(N2CCOc3ccc(-c4ccc5nc(C)[nH]c5c4)cc3C2)c1Cc1ccccc1",
    "pIC50": "≥ 8.00"
  },
  {
    "compound": "C[C@H](CO)CS(=O)(=O)c1cc(-c2ccc3c(c2)CN(c2ncnc4c2CC(C)(C)CC4)CCO3)cnc1N",
    "pIC50": "7.30 to 8.00"
  },
  {
    "compound": "c1ccc2c(N3CCOc4ccc(-c5ccc6nccnc6c5)cc4C3)ccnc2c1",
    "pIC50": "≤ 5.70"
  },
  {
    "compound": "CC1(C)CCc2ncnc(N3CCOc4ccc(-c5cnc(N)c(S(=O)(=O)N6CCOCC6)c5)cc4C3)c2C1",
    "pIC50": "6.60 to 7.30"
  },
  {
    "compound": "Cc1nc(N)sc1-c1ccc2c(c1)CN(c1ncnc(C)c1Cc1ccc(F)cc1)CCO2",
    "pIC50": "6.60 to 7.30"
  },
  {
    "compound": "Cc1nc(CN(C)C)nc(N2CCOc3ccc(-c4cnc5sc(N)nc5c4)cc3C2)c1CC1CC1",
    "pIC50": "6.60 to 7.30"
  },
  {
    "compound": "CC[C@H]1CCc2c(ncnc2N2CCOc3ccc(-c4cnc5nc([C@@H](C)N)[nH]c5c4)cc3C2)C1",
    "pIC50": "6.60 to 7.30"
  }
]

----------
Target: mTOR/GbL/Raptor (mTORC1) (Homo sapiens)
Test: mTOR/GbL/Raptor (mTORC1) ELISA assay
Settings: phosphorylation of 4E-BP1; 0.2 nM mTORC1, 10 μM ATP; read-out: IC50 in this assay (mTORC1 ELISA)
Reported IC50 values for the following compounds.

[
  {
    "compound": "Nc1nc2ncc(-c3ccc4c(c3)CN(c3ncnc5cccnc35)CCO4)cc2[nH]1 [Example 227]",
    "measured_on": "mTOR/GbL/Raptor (mTORC1) (Homo sapiens)",
    "IC50": "50 to 250 nM"
  },
  {
    "compound": "CCc1nc2cc(-c3ccc4c(c3)CN(c3ncnc5c3CC(C)(C)CC5)CCO4)cnc2[nH]1 [Example 220]",
    "measured_on": "mTOR/GbL/Raptor (mTORC1) (Homo sapiens)",
    "IC50": "≤ 10 nM"
  },
  {
    "compound": "CCNc1nc2ccc(-c3ccc4c(c3)CN(c3ncnc5cc(OC)c(OC)cc35)CCO4)cc2[nH]1 [Example 259]",
    "measured_on": "mTOR/GbL/Raptor (mTORC1) (Homo sapiens)",
    "IC50": "50 to 250 nM"
  },
  {
    "compound": "Cc1nc2ccc(-c3ccc4c(c3)CN(c3ncnc5c3CC(C)(C)CC5)CCO4)cc2[nH]1 [Example 65]",
    "measured_on": "mTOR/GbL/Raptor (mTORC1) (Homo sapiens)",
    "IC50": "≤ 10 nM"
  },
  {
    "compound": "c1cc(N2CCOc3ccc(-c4cnc5nc[nH]c5c4)cc3C2)ncn1 [Example 543]",
    "measured_on": "mTOR/GbL/Raptor (mTORC1) (Homo sapiens)",
    "IC50": "1000 to 2000 nM"
  },
  {
    "compound": "CCNc1nc(C)nc(N2CCOc3ccc(-c4cnc5nc(C)[nH]c5c4)cc3C2)c1C [Example 637]",
    "measured_on": "mTOR/GbL/Raptor (mTORC1) (Homo sapiens)",
    "IC50": "250 to 1000 nM"
  },
  {
    "compound": "COC(=O)Nc1nc2ccc(-c3ccc4c(c3)CN(c3nc(CN(C)C)nc5c3CC(C)(C)CC5)CCO4)cc2[nH]1 [Example 579]",
    "measured_on": "mTOR/GbL/Raptor (mTORC1) (Homo sapiens)",
    "IC50": "250 to 1000 nM"
  },
  {
    "compound": "CC1=C(C)C(C)(C)Cc2c1ncnc2N1CCOc2ccc(-c3cnc4nc(C)[nH]c4c3)cc2C1 [Example 552]",
    "measured_on": "mTOR/GbL/Raptor (mTORC1) (Homo sapiens)",
    "IC50": "≤ 10 nM"
  },
  {
    "compound": "CC1(C)CCc2ncnc(N3CCOc4ccc(-c5cnc6[nH]c(CF)nc6c5)cc4C3)c2C1 [Example 238]",
    "measured_on": "mTOR/GbL/Raptor (mTORC1) (Homo sapiens)",
    "IC50": "≤ 10 nM"
  },
  {
    "compound": "CC(C)NS(=O)(=O)c1cc(-c2ccc3c(c2)CN(c2ncnc4c2CC(C)(C)CC4)CCO3)cnc1N [Example 364]",
    "measured_on": "mTOR/GbL/Raptor (mTORC1) (Homo sapiens)",
    "IC50": "10 to 50 nM"
  },
  {
    "compound": "COCCOc1ccc(-c2ccc3c(c2)CN(c2nc(CN(C)C)nc4c2CC(C)(C)CC4)CCO3)cc1OC [Example 327]",
    "measured_on": "mTOR/GbL/Raptor (mTORC1) (Homo sapiens)",
    "IC50": "250 to 1000 nM"
  },
  {
    "compound": "COc1cc2c(N3CCOc4ccc(-c5ccc6nc(C)[nH]c6c5)cc4C3)ncnc2cc1O [Example 157]",
    "measured_on": "mTOR/GbL/Raptor (mTORC1) (Homo sapiens)",
    "IC50": "250 to 1000 nM"
  },
  {
    "compound": "c1ccc2c(N3CCOc4ccc(-c5ccc6scnc6c5)cc4C3)ccnc2c1 [Example 129]",
    "measured_on": "mTOR/GbL/Raptor (mTORC1) (Homo sapiens)",
    "IC50": "250 to 1000 nM"
  },
  {
    "compound": "Cc1nc2ccc(-c3ccc4c(c3)CN(c3nc(CNC5CC5)nc(C)c3Cc3ccc(F)cc3)CCO4)cc2[nH]1 [Example 584]",
    "measured_on": "mTOR/GbL/Raptor (mTORC1) (Homo sapiens)",
    "IC50": "≤ 10 nM"
  },
  {
    "compound": "CCNc1nc2ccc(-c3ccc4c(c3)CN(c3ncnc(Nc5ccc(OC)cc5)c3C)CCO4)cc2[nH]1 [Example 640]",
    "measured_on": "mTOR/GbL/Raptor (mTORC1) (Homo sapiens)",
    "IC50": "250 to 1000 nM"
  },
  {
    "compound": "Cc1nc2ccc(-c3ccc4c(c3)CN(c3nc(CN(C)C)nc(C)c3CC3CC3)CCO4)cc2[nH]1 [Example 345]",
    "measured_on": "mTOR/GbL/Raptor (mTORC1) (Homo sapiens)",
    "IC50": "250 to 1000 nM"
  },
  {
    "compound": "CC1(C)CCc2ncnc(N3CCOc4ccc(-c5cnc(N)c(S(=O)(=O)NCC6CCNCC6)c5)cc4C3)c2C1 [Example 378]",
    "measured_on": "mTOR/GbL/Raptor (mTORC1) (Homo sapiens)",
    "IC50": "50 to 250 nM"
  },
  {
    "compound": "CC1(C)CCc2ncnc(N3CCOc4ccc(-c5cnc(N)c(S(=O)(=O)N6C7CCC6CC(N)C7)c5)cc4C3)c2C1 (stereo not drawn) [Example 575]",
    "measured_on": "mTOR/GbL/Raptor (mTORC1) (Homo sapiens)",
    "IC50": "10 to 50 nM"
  },
  {
    "compound": "COC(=O)Nc1nc2ccc(-c3ccc4c(c3)CN(c3ccncn3)CCO4)cc2[nH]1 [Example 107]",
    "measured_on": "mTOR/GbL/Raptor (mTORC1) (Homo sapiens)",
    "IC50": "≥ 2000 nM"
  },
  {
    "compound": "Cc1nc2c(c(N3CCOc4ccc(-c5cnc6sc(N)nc6c5)cc4C3)n1)CC(C)(C)CC2 [Example 669]",
    "measured_on": "mTOR/GbL/Raptor (mTORC1) (Homo sapiens)",
    "IC50": "≤ 10 nM"
  },
  {
    "compound": "CC[C@H]1CCc2c(ncnc2N2CCOc3ccc(-c4cnc5nc(C)[nH]c5c4)cc3C2)C1 [Example 488]",
    "measured_on": "mTOR/GbL/Raptor (mTORC1) (Homo sapiens)",
    "IC50": "≤ 10 nM"
  },
  {
    "compound": "CCc1c(C)nc(CN(C)C)nc1N1CCOc2ccc(-c3ccc4[nH]c(C)nc4c3)cc2C1 [Example 349]",
    "measured_on": "mTOR/GbL/Raptor (mTORC1) (Homo sapiens)",
    "IC50": "250 to 1000 nM"
  },
  {
    "compound": "C[C@H]1CCc2c(ncnc2N2CCOc3ccc(-c4cnc5nc(C6CC6)[nH]c5c4)cc3C2)C1 [Example 546]",
    "measured_on": "mTOR/GbL/Raptor (mTORC1) (Homo sapiens)",
    "IC50": "50 to 250 nM"
  },
  {
    "compound": "COCCNS(=O)(=O)c1cc(-c2ccc3c(c2)CN(c2ncnc4c2CC(C)(C)CC4)CCO3)cnc1N [Example 392]",
    "measured_on": "mTOR/GbL/Raptor (mTORC1) (Homo sapiens)",
    "IC50": "50 to 250 nM"
  },
  {
    "compound": "CC1(C)CCc2ncnc(N3CCOc4ccc(-c5cnc(N)c(S(=O)(=O)NCC6(N)CC6)c5)cc4C3)c2C1 [Example 418]",
    "measured_on": "mTOR/GbL/Raptor (mTORC1) (Homo sapiens)",
    "IC50": "10 to 50 nM"
  },
  {
    "compound": "COCCOCc1nc2c(c(N3CCOc4ccc(-c5cnc6nc(C)[nH]c6c5)cc4C3)n1)CC(C)(C)CC2 [Example 495]",
    "measured_on": "mTOR/GbL/Raptor (mTORC1) (Homo sapiens)",
    "IC50": "≤ 10 nM"
  },
  {
    "compound": "CC[C@H]1CCc2c(ncnc2N2CCOc3ccc(-c4cnc5nc([C@H](C)N)[nH]c5c4)cc3C2)C1 [Example 298]",
    "measured_on": "mTOR/GbL/Raptor (mTORC1) (Homo sapiens)",
    "IC50": "50 to 250 nM"
  },
  {
    "compound": "Cc1nc2cc(-c3ccc4c(c3)CN(c3nc([C@H]5CCCN5)nc5c3CC(C)(C)CC5)CCO4)cnc2[nH]1 [Example 506]",
    "measured_on": "mTOR/GbL/Raptor (mTORC1) (Homo sapiens)",
    "IC50": "≤ 10 nM"
  },
  {
    "compound": "Cc1nc(CN(C)C)nc(N2CCOc3ccc(-c4ccc5[nH]c(C(F)F)nc5c4)cc3C2)c1C(C)C [Example 331]",
    "measured_on": "mTOR/GbL/Raptor (mTORC1) (Homo sapiens)",
    "IC50": "50 to 250 nM"
  },
  {
    "compound": "CN(C)Cc1nc2c(c(N3CCOc4ccc(-c5cccc(C(N)=O)c5)cc4C3)n1)CC(C)(C)CC2 [Example 433]",
    "measured_on": "mTOR/GbL/Raptor (mTORC1) (Homo sapiens)",
    "IC50": "≥ 2000 nM"
  }
]
